- Tested on: NCI-H460 lung
- protocol.details: NCI-60 one-dose screen, 48 h (100 = growth as untreated, 0 = no growth, -100 = all killed)
- assay.context: 10 µM unless noted
This is part of a sample that, as a whole, favours compounds with a hit. Of some 83,000 tested, about 20% had one in any assay.

molecule: Cc1cc2c(cc1C)[n+](Cc1ccc3ccccc3n1)cn2Cc1ccc2ccccc2n1
measurement.units: %
growth: 0.342
--
molecule: CCN(CC)c1ccc(C(=C2C=CC(=[N+](CC)Cc3cccc(S(=O)(=O)O)c3)C=C2)c2ccc(N(CC)Cc3cccc(S(=O)(=O)O)c3)cc2)cc1
measurement.units: %
growth: 49.1
--
molecule: C=CCNC(=O)/C(=C/c1cccc([N+](=O)[O-])c1)NC(=O)c1ccccc1
measurement.units: %
growth: 111
--
molecule: COc1ccccc1NC(=O)c1sc2nc3c(cc2c1N)C(=O)CCC3
measurement.units: %
growth: 19.3
--
molecule: c1ccc2nc(N/N=C3\CCCCC3C3CCCCC3)ccc2c1 (stereo not given)
measurement.units: %
growth: 39.7
--
molecule: COc1cc(NC(=O)NCc2ccco2)ccc1-c1ccc(NC(=O)NCc2ccco2)cc1OC
measurement.units: %
growth: 35.8
--
molecule: Oc1c(Cl)cc(Oc2cc(Cl)c(O)c(CN3CCOCC3)c2)cc1CN1CCOCC1
measurement.units: %
growth: 93.4
--
molecule: O=C(NC1CCS(=O)(=O)C1)c1ccc(C(=O)c2ccccc2)cc1 (stereo not given)
measurement.units: %
growth: 104
--
molecule: COc1ccc(C2=NN(C(N)=S)C(c3ccc4c(c3)OCO4)C2)cc1 (stereo not given)
measurement.units: %
growth: 42.6
--
molecule: O=C1NC(=O)/C(=C\c2ccco2)S1
measurement.units: %
growth: 105
--
molecule: Fc1ccccc1C1c2ccccc2-c2nccn21 (stereo not given)
measurement.units: %
growth: 110
--
molecule: CC(=O)N1N=C(c2ccc(Cl)cc2)CC1c1c(C)nn(-c2ccccc2)c1N(C)Cc1ccccc1 (stereo not given)
measurement.units: %
growth: 79
--
molecule: Nc1nc(SCc2cccnc2)c2ncn(C3OC(CO)C(O)C3O)c2n1 (stereo not given)
measurement.units: %
growth: 96.6
--
molecule: CCCCN1c2nc3ccccc3cc2Sc2cc3ccccc3nc21
measurement.units: %
growth: 99
--
molecule: COc1cccc(/C=C2\Cc3ccccc3C2=O)c1
measurement.units: %
growth: 105
--
molecule: COc1ccc2c3c(ccc2c1)C(=O)/C(=C\O)CC3
measurement.units: %
growth: 102
--
molecule: N#Cc1ncc(-c2ccc(C(F)(F)F)cc2)c(NC2CCCCCC2)n1
measurement.units: %
growth: 29.8
--
molecule: COc1ccc2nc(NC(=O)CN3CCn4c(nnc4C(F)(F)F)C3)sc2c1
measurement.units: %
growth: 99.5
--
molecule: COc1ccc(C2=NN(C(C)=O)C(c3cccc(Nc4ccnc5cc(Cl)ccc45)c3)C2)cc1 (stereo not given)
measurement.units: %
growth: 64.9
--
molecule: C1CCC(C(CC2CCCCN2)C2CCCCC2)CC1 (stereo not given)
measurement.units: %
growth: -84.3
--
molecule: O=C1NCCc2c1noc2-c1ccccc1
measurement.units: %
growth: 107
--
molecule: COc1cnc2c(c1)C(=O)c1c-2n(CCCNC2=NCCS2)c(=O)c2cc(F)ccc12
measurement.units: %
growth: -43.8
--
molecule: COc1ccc2nc(-c3ccc(Cl)cc3)cc(-c3nnc(SCC(=O)Nc4ccc(C(C)=O)cc4)n3-c3ccccc3)c2c1
measurement.units: %
growth: 102
--
molecule: Cc1sc2nc(N3CCCCC3)[nH]c(=O)c2c1C
measurement.units: %
growth: 101
--
molecule: COC(=O)N/N=C/c1coc2ccc(Cl)cc2c1=O
measurement.units: %
growth: 102

Data origin, for the record: PubChem BioAssay (NCI)
